experimental-system: T1, human FOLR1 recombinant protein (extracellular domain of human folate receptor alpha) (human, UniProt P15328 25-233)
T1 construct: Bought recombinant protein (Sino Biological); also called hFOLR1; FR-alpha
T1 sequence (P15328 25-233): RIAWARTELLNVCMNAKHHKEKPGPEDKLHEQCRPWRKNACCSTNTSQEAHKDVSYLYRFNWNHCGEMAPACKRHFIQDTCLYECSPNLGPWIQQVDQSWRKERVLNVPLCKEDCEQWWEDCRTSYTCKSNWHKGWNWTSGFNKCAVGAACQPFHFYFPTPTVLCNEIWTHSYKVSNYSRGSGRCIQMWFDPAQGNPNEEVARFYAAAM
procedure-text: SPR (Biacore T200), single cycle kinetics, human FOLR1 immobilized on CM5, untagged VHH as analyte, 1:1 fit
Could you please report measured koff for the items listed next?
One number for each entry, in s⁻¹.

binder	endpoint-name	number
untagged N64Q variant of VHH A1 (VHH, also called A1-N64Q) VHH: DVQLVESGGGLVQPGGSLRLSCAASESIFSRNHMSWYRQAPGKQRELAAIITSDGQTNYPDSVKGRFTISRDNAKNTVYLQMNSLKPEDTAVYYCNTFGRSVAGFYDYWGQGTQVTVSS	koff	8.2e-05
untagged K29R-E90Q variant of VHH A2 (VHH, also called A2-K29R-E90Q) VHH: DVQLVESGGGLVQAGGSLRLSCAADEMRFSNYDLAWYRRAPGKQRELAAIITSGGSTNYPDSVKGRFTISRDNAKNTVYLQMNSLKPEDTAVYYCNALRPWPQFSDYWGQGTQVTVSS	koff	0.00053
untagged N64S variant of VHH A1 (VHH, also called A1-N64S) VHH: DVQLVESGGGLVQPGGSLRLSCAASESIFSRNHMSWYRQAPGKQRELAAIITSDGSTNYPDSVKGRFTISRDNAKNTVYLQMNSLKPEDTAVYYCNTFGRSVAGFYDYWGQGTQVTVSS	koff	0.00014

Now turn to the next binder.
Per the records, this binder ( untagged K29Q-E90Q variant of VHH A2 (VHH, also called A2-K29Q-E90Q) VHH: DVQLVESGGGLVQAGGSLRLSCAADEMQFSNYDLAWYRRAPGKQRELAAIITSGGSTNYPDSVKGRFTISRDNAKNTVYLQMNSLKPEDTAVYYCNALRPWPQFSDYWGQGTQVTVSS ) has koff equal to 0.00048
